The reported numbers originate from PubChem BioAssay AID1963969.

System: 817829-284-R-J1-PDC multi-cell spheroid viability
Procedure text: Anticancer human tumor 817829-284-R-J1-PDC patient-derived colon adenocarcinoma cell line growth inhibition [PI3K]
Measurement setup: second compound 0.316 µM; first compound 0.0316 µM; stronger effect = lower value
Reported viability, T/C values for a set of molecules
Reported property: viability, T/C

CC(C)NCC(C(=O)N1CCN(c2ncnc3c2C(C)CC3O)CC1)c1ccc(Cl)cc1 (stereo not given) + Cc1nc(NC(=O)N2CCCC2C(N)=O)sc1-c1ccnc(C(C)(C)C(F)(F)F)c1: 55.5%
CC(=O)c1c(C)c2cnc(Nc3ccc(N4CCNCC4)cn3)nc2n(C2CCCC2)c1=O + CC(Nc1ccc2c(c1)OCCn1cc(N3C(=O)OCC3C(F)F)nc1-2)C(N)=O: 38.3%
CCN1CCN(Cc2ccc(Nc3ncc(F)c(-c4cc(F)c5nc(C)n(C(C)C)c5c4)n3)nc2)CC1 + Cc1nc(NC(=O)N2CCCC2C(N)=O)sc1-c1ccnc(C(C)(C)C(F)(F)F)c1: 74.9%
CNC(=O)c1ccc(N2C(=S)N(c3ccc(C#N)c(C(F)(F)F)c3)C(=O)C2(C)C)cc1F + COc1c(OCCCN2CCOCC2)ccc2c3n(c(=NC(=O)c4cnc(N)nc4)nc12)CCN3: 19.9%
C[C@@H](NC(=O)c1ncnc(N)c1Cl)c1ncc(C(=O)Nc2cc(C(F)(F)F)c(Cl)cn2)s1 + COc1c(OCCCN2CCOCC2)ccc2c3n(c(=NC(=O)c4cnc(N)nc4)nc12)CCN3: 26.3%

* * *

Reported pIC50 values for a set of molecules
Test system: 817829-284-R-J1-PDC multi-cell spheroid viability
Procedure text: Anticancer human tumor 817829-284-R-J1-PDC cell line growth inhibition [PI3K];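 note: spheroids exposed to agents for seven days before readout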
Measurement setup: curve of first compound; second compound 0.1 µM
pIC50: −log10 of the molar value.
Reported property: pIC50

CC(=O)c1c(C)c2cnc(Nc3ccc(N4CCNCC4)cn3)nc2n(C2CCCC2)c1=O + CC(Nc1ccc2c(c1)OCCn1cc(N3C(=O)OCC3C(F)F)nc1-2)C(N)=O: 7.54
CC1(C)CCC(CN2CCN(c3ccc(C(=O)NS(=O)(=O)c4ccc(NCC5CCOCC5)c([N+](=O)[O-])c4)c(Oc4cnc5[nH]ccc5c4)c3)CC2)=C(c2ccc(Cl)cc2)C1 + CC(Nc1ccc2c(c1)OCCn1cc(N3C(=O)OCC3C(F)F)nc1-2)C(N)=O: 6.22
Cn1ncnc1[C@H]1c2n[nH]c(=O)c3cc(F)cc(c23)N[C@@H]1c1ccc(F)cc1 + CC(Nc1ccc2c(c1)OCCn1cc(N3C(=O)OCC3C(F)F)nc1-2)C(N)=O: 7.32
CC(=O)c1c(C)c2cnc(Nc3ccc(N4CCNCC4)cn3)nc2n(C2CCCC2)c1=O + CC(Nc1ncnc2nc[nH]c12)c1cc2cccc(Cl)c2c(=O)n1-c1ccccc1: 7.13
C=CC(=O)N1CCN(c2nc(=O)n(-c3c(C)ccnc3C(C)C)c3nc(-c4c(O)cccc4F)c(F)cc23)C(C)C1 (stereo unspecified) + CC(Nc1ccc2c(c1)OCCn1cc(N3C(=O)OCC3C(F)F)nc1-2)C(N)=O: 5.18
Cn1ncnc1[C@H]1c2n[nH]c(=O)c3cc(F)cc(c23)N[C@@H]1c1ccc(F)cc1 + Cc1nc(NC(=O)N2CCCC2C(N)=O)sc1-c1ccnc(C(C)(C)C(F)(F)F)c1: 7.20
CCN1CCN(Cc2ccc(Nc3ncc(F)c(-c4cc(F)c5nc(C)n(C(C)C)c5c4)n3)nc2)CC1 + Cc1nc(NC(=O)N2CCCC2C(N)=O)sc1-c1ccnc(C(C)(C)C(F)(F)F)c1: 6.50
CC(=O)c1c(C)c2cnc(Nc3ccc(N4CCNCC4)cn3)nc2n(C2CCCC2)c1=O + Cc1nc(NC(=O)N2CCCC2C(N)=O)sc1-c1ccnc(C(C)(C)C(F)(F)F)c1: 8.36
Cn1cnc2c(F)c(Nc3ccc(Br)cc3Cl)c(C(=O)NOCCO)cc21 + Cc1nc(NC(=O)N2CCCC2C(N)=O)sc1-c1ccnc(C(C)(C)C(F)(F)F)c1: 6.50
C=CC(=O)N1CCN(c2nc(=O)n(-c3c(C)ccnc3C(C)C)c3nc(-c4c(O)cccc4F)c(F)cc23)C(C)C1 (stereo unspecified) + Cc1nc(NC(=O)N2CCCC2C(N)=O)sc1-c1ccnc(C(C)(C)C(F)(F)F)c1: 5.22
Cn1nccc1Nc1nccc(-c2ccn(C(CO)c3ccc(Cl)c(F)c3)c(=O)c2)n1 (stereo unspecified) + CC(Nc1ccc2c(c1)OCCn1cc(N3C(=O)OCC3C(F)F)nc1-2)C(N)=O: 5.16

* * *

Test system: 817829-284-R-J1-PDC multi-cell spheroid viability
Procedure text: Anticancer human tumor 817829-284-R-J1-PDC cell line growth inhibition [PI3K];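 note: spheroids exposed to agents for seven days before readout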;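 for viability, T/C: percent of vehicle DMSO control viability which is 100%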
Measurement setup: second compound 0.01 µM; first compound 0.000316 µM; stronger effect = lower value
Reported viability, T/C values for a set of compounds
Reported property: viability, T/C (%)

CC(=O)c1c(C)c2cnc(Nc3ccc(N4CCNCC4)cn3)nc2n(C2CCCC2)c1=O + CC(Nc1ccc2c(c1)OCCn1cc(N3C(=O)OCC3C(F)F)nc1-2)C(N)=O: 124
CC(=O)c1c(C)c2cnc(Nc3ccc(N4CCNCC4)cn3)nc2n(C2CCCC2)c1=O + COc1c(OCCCN2CCOCC2)ccc2c3n(c(=NC(=O)c4cnc(N)nc4)nc12)CCN3: 91.1
CC(C)n1nc(-c2ccc3oc(N)nc3c2)c2c(N)ncnc21 + CC(Nc1ccc2c(c1)OCCn1cc(N3C(=O)OCC3C(F)F)nc1-2)C(N)=O: 60.2
CC(C)n1nc(-c2ccc3oc(N)nc3c2)c2c(N)ncnc21 + COc1c(OCCCN2CCOCC2)ccc2c3n(c(=NC(=O)c4cnc(N)nc4)nc12)CCN3: 44
Cn1ncnc1[C@H]1c2n[nH]c(=O)c3cc(F)cc(c23)N[C@@H]1c1ccc(F)cc1 + CC(Nc1ccc2c(c1)OCCn1cc(N3C(=O)OCC3C(F)F)nc1-2)C(N)=O: 75.1

* * *

System: 817829-284-R-J1-PDC multi-cell spheroid viability
Procedure text: Anticancer human tumor 817829-284-R-J1-PDC cell line growth inhibition [PI3K];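 note: spheroids exposed to agents for seven days before readout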;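 for viability, T/C: percent of vehicle DMSO control viability which is 100%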
Measurement setup: second compound 0.0316 µM; first compound 0.316 µM; stronger effect = lower value
Reported viability, T/C values for a set of molecules
Reported property: viability, T/C

C=CC(=O)N1CCN(c2nc(=O)n(-c3c(C)ccnc3C(C)C)c3nc(-c4c(O)cccc4F)c(F)cc23)C(C)C1 (stereo not given) + Cc1nc(NC(=O)N2CCCC2C(N)=O)sc1-c1ccnc(C(C)(C)C(F)(F)F)c1: 114%
Cn1nccc1Nc1nccc(-c2ccn(C(CO)c3ccc(Cl)c(F)c3)c(=O)c2)n1 (stereo not given) + CC(Nc1ccc2c(c1)OCCn1cc(N3C(=O)OCC3C(F)F)nc1-2)C(N)=O: 90.2%
CC1(C)CCC(Nc2ncc(C(F)(F)F)c(-c3c[nH]c4c(P(C)(C)=O)c(C#N)ccc34)n2)CN1 (stereo not given) + CC(Nc1ccc2c(c1)OCCn1cc(N3C(=O)OCC3C(F)F)nc1-2)C(N)=O: 25.9%
CC(Cn1ccc(-c2ccc(C#N)c(Cl)c2)n1)NC(=O)c1cc(C(C)O)[nH]n1 (stereo not given) + COc1c(OCCCN2CCOCC2)ccc2c3n(c(=NC(=O)c4cnc(N)nc4)nc12)CCN3: 61.4%
Cn1ncc(Cl)c1-c1cc(C(=O)NC(CN)Cc2cccc(F)c2)sc1Cl (stereo not given) + COc1c(OCCCN2CCOCC2)ccc2c3n(c(=NC(=O)c4cnc(N)nc4)nc12)CCN3: 16.8%

* * *

Test system: 817829-284-R-J1-PDC multi-cell spheroid viability
Procedure text: Anticancer human tumor 817829-284-R-J1-PDC cell line growth inhibition [PI3K];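 note: spheroids exposed to agents for seven days before readout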;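 for viability, T/C: percent of vehicle DMSO control viability which is 100%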
Measurement setup: second compound 0.0316 µM; first compound 0.01 µM; stronger effect = lower value
Reported property: viability, T/C (%)

CC(=O)c1c(C)c2cnc(Nc3ccc(N4CCNCC4)cn3)nc2n(C2CCCC2)c1=O + COc1c(OCCCN2CCOCC2)ccc2c3n(c(=NC(=O)c4cnc(N)nc4)nc12)CCN3: 60.6
CC(C)n1nc(-c2ccc3oc(N)nc3c2)c2c(N)ncnc21 + CC(Nc1ncnc2nc[nH]c12)c1cc2cccc(Cl)c2c(=O)n1-c1ccccc1: 62.7
CCN1CCN(Cc2ccc(Nc3ncc(F)c(-c4cc(F)c5nc(C)n(C(C)C)c5c4)n3)nc2)CC1 + Cc1nc(NC(=O)N2CCCC2C(N)=O)sc1-c1ccnc(C(C)(C)C(F)(F)F)c1: 55.4
CC(=O)c1c(C)c2cnc(Nc3ccc(N4CCNCC4)cn3)nc2n(C2CCCC2)c1=O + CC(Nc1ncnc2nc[nH]c12)c1cc2cccc(Cl)c2c(=O)n1-c1ccccc1: 75.4
CC(C)n1nc(-c2ccc3oc(N)nc3c2)c2c(N)ncnc21 + COc1c(OCCCN2CCOCC2)ccc2c3n(c(=NC(=O)c4cnc(N)nc4)nc12)CCN3: 46.5
CCN1CCN(Cc2ccc(Nc3ncc(F)c(-c4cc(F)c5nc(C)n(C(C)C)c5c4)n3)nc2)CC1 + COc1c(OCCCN2CCOCC2)ccc2c3n(c(=NC(=O)c4cnc(N)nc4)nc12)CCN3: 55.5
Cn1ncnc1[C@H]1c2n[nH]c(=O)c3cc(F)cc(c23)N[C@@H]1c1ccc(F)cc1 + Cc1nc(NC(=O)N2CCCC2C(N)=O)sc1-c1ccnc(C(C)(C)C(F)(F)F)c1: 55.1
Cn1ncnc1[C@H]1c2n[nH]c(=O)c3cc(F)cc(c23)N[C@@H]1c1ccc(F)cc1 + CC(Nc1ccc2c(c1)OCCn1cc(N3C(=O)OCC3C(F)F)nc1-2)C(N)=O: 65
CC(=O)c1c(C)c2cnc(Nc3ccc(N4CCNCC4)cn3)nc2n(C2CCCC2)c1=O + Cc1nc(NC(=O)N2CCCC2C(N)=O)sc1-c1ccnc(C(C)(C)C(F)(F)F)c1: 60.1
CC(=O)c1c(C)c2cnc(Nc3ccc(N4CCNCC4)cn3)nc2n(C2CCCC2)c1=O + CC(Nc1ccc2c(c1)OCCn1cc(N3C(=O)OCC3C(F)F)nc1-2)C(N)=O: 62.5
CC(C)n1nc(-c2ccc3oc(N)nc3c2)c2c(N)ncnc21 + CC(Nc1ccc2c(c1)OCCn1cc(N3C(=O)OCC3C(F)F)nc1-2)C(N)=O: 50.3
